test system: rodent lifetime carcinogenesis bioassay, tumor incidence TD50; test: carcinogenic potency in animals, long-term in vivo studies, CPDB compilation (AID 1745844); settings: rat; strain Fischer 344; females; by gavage; site: pancreas; lesion: acinar-cell adenoma; dosed 104 weeks; study length 105 weeks
measure: TD50 (mg/kg/day)
Report the value in mg/kg/day with no unit label.

# get_value(readout='TD50', item= CCCC(Cl)CCCC(Cl)CCC(Cl)CCC(Cl)CCC(Cl)CCCC(Cl)CCC (stereo unspecified) )
839

* * *

tested on: rodent lifetime carcinogenesis bioassay, tumor incidence TD50; test: carcinogenic potency in animals, long-term in vivo studies, CPDB compilation (AID 1745844); settings: rat; strain Wistar albino; males; i.p.; site: kidney; lesion: mesenchymal neoplasm; dosed 26 weeks; study length 52 weeks
measure: TD50

Record CN(N=O)C(=O)NCCC[C@H](N)C(=O)O : what is its TD50 with rodent lifetime carcinogenesis bioassay, tumor incidence TD50?
1.57 mg/kg/day

* * *

test system: rodent lifetime carcinogenesis bioassay, tumor incidence TD50; assay: carcinogenic potency in animals, long-term in vivo studies, CPDB compilation (AID 1745844); settings: mouse; strain B6C3F1; females; in feed; site: any site (literature study); lesion: several types; types named in the paper; dosed 78 weeks; study length 91 weeks
measure: TD50 (mg/kg/day)
Numbers only; they are read as mg/kg/day.

Cc1ccc(Cl)cc1N : 164

Switching to the query record.
Can you look up the measured TD50 of CN(C)c1ccc(Cc2ccc(N(C)C)cc2)cc1 for me?
280

* * *

tested on: rodent lifetime carcinogenesis bioassay, tumor incidence TD50; test: carcinogenic potency in animals, long-term in vivo studies, CPDB compilation (AID 1745844); details: rat; strain Fischer 344; females; in feed; site: liver; lesion: hepatocellular adenoma + hepatoblastoma + hepatocellular carcinoma; dosed 101 weeks; study length 103 weeks
measure: TD50 (mg/kg/day)
# value in mg/kg/day; strip the unit string

Give its TD50 value. Item: CCC1(c2ccccc2)C(=O)NCNC1=O
4050

* * *

test system: rodent lifetime carcinogenesis bioassay, tumor incidence TD50; assay: carcinogenic potency in animals, long-term in vivo studies, CPDB compilation (AID 1745844); settings: mouse; strain B6C3F1; females; in feed; site: forestomach; lesion: squamous-cell carcinoma; dosed 104 weeks; study length 104 weeks
measure: TD50

Find TD50 (rodent lifetime carcinogenesis bioassay, tumor incidence TD50) for the entry Nc1c(Br)cc(Br)c2c1C(=O)c1ccccc1C2=O
3930 mg/kg/day

* * *

tested on: rodent lifetime carcinogenesis bioassay, tumor incidence TD50; test: carcinogenic potency in animals, long-term in vivo studies, CPDB compilation (AID 1745844); details: rat; strain Fischer 344; males; by gavage; site: testis; lesion: interstitial-cell tumor; dosed 104 weeks; study length 105 weeks
measure: TD50 (mg/kg/day)
I only need the number, in mg/kg/day, no unit after it.

# TD50 lookup, item CCCC(Cl)CCCC(Cl)CCC(Cl)CCC(Cl)CCC(Cl)CCCC(Cl)CCC (stereo unspecified)
75.2

* * *

test system: rodent lifetime carcinogenesis bioassay, tumor incidence TD50; assay: carcinogenic potency in animals, long-term in vivo studies, CPDB compilation (AID 1745844); details: mouse; strain B6C3F1; females; by gavage; site: uterus; lesion: endometrial stromal polyp; dosed 88 weeks; study length 104 weeks
measure: TD50

Request - read-out TD50 | tested on rodent lifetime carcinogenesis bioassay, tumor incidence TD50 | molecule ClCC(Cl)CCl
22.9 mg/kg/day

* * *

tested on: rodent lifetime carcinogenesis bioassay, tumor incidence TD50; experiment: carcinogenic potency in animals, long-term in vivo studies, CPDB compilation (AID 1745844); conditions: mouse; strain Swiss; females; in drinking water; site: any site (literature study); lesion: benign tumor; dosed 78 weeks; study length 151 weeks
measure: TD50 (mg/kg/day)
Numeric only. Scale: mg/kg/day

Item under review: C=COC(C)=O . Reported TD50?
2030

* * *

test system: rodent lifetime carcinogenesis bioassay, tumor incidence TD50; test: carcinogenic potency in animals, long-term in vivo studies, CPDB compilation (AID 1745844); conditions: hamster; strain Syrian Golden; males; in feed; site: esophagus; lesion: squamous-cell carcinoma; dosed 94 weeks; study length 94 weeks
measure: TD50

Requested field: TD50. Item: NC(=O)C(=Cc1ccc([N+](=O)[O-])o1)c1ccco1
2180 mg/kg/day

* * *

tested on: rodent lifetime carcinogenesis bioassay, tumor incidence TD50; experiment: carcinogenic potency in animals, long-term in vivo studies, CPDB compilation (AID 1745844); conditions: mouse; strain BALB/c; females; by gavage; site: lung; lesion: several types; types named in the paper; dosed 30 weeks; study length 49 weeks
measure: TD50
Kindly report the value followed by its unit.

What measured TD50 is associated with O=NN1CCCCCC1 on rodent lifetime carcinogenesis bioassay, tumor incidence TD50?
7.44 mg/kg/day

* * *

tested on: rodent lifetime carcinogenesis bioassay, tumor incidence TD50; test: carcinogenic potency in animals, long-term in vivo studies, CPDB compilation (AID 1745844); details: mouse; strain Swiss; females; inhaled; site: any site (literature study); lesion: malignant tumor; dosed 52 weeks; study length 126 weeks
measure: TD50 (mg/kg/day)
Could you give me the number in mg/kg/day? Just the number is fine.

Requested read-out: TD50. Entry: C=C(Cl)Cl
86.1

* * *

test system: rodent lifetime carcinogenesis bioassay, tumor incidence TD50; test: carcinogenic potency in animals, long-term in vivo studies, CPDB compilation (AID 1745844); settings: rat; strain Chester Beatty albino; males; in drinking water; site: esophagus; lesion: several types; types named in the paper; dosed 73 weeks; study length 73 weeks
measure: TD50

// TD50 lookup, key: O=NN1CCCC[C@H]1c1cccnc1
11 mg/kg/day

* * *

test system: rodent lifetime carcinogenesis bioassay, tumor incidence TD50; assay: carcinogenic potency in animals, long-term in vivo studies, CPDB compilation (AID 1745844); details: rat; strain Fischer 344; males; oral dosing; site: liver; lesion: hepatocellular adenoma + hepatocellular carcinoma + neoplastic nodule; dosed 78 weeks; study length 104 weeks
measure: TD50 (mg/kg/day)
Give just the numeric value; mg/kg/day need not be written.

What value of TD50 has been reported for the following molecule? COc1cc(-c2ccc(N=C=O)c(OC)c2)ccc1N=C=O
6600

* * *

system: rodent lifetime carcinogenesis bioassay, tumor incidence TD50; assay: carcinogenic potency in animals, long-term in vivo studies, CPDB compilation (AID 1745844); details: mouse; strain B6C3F1; males; inhaled; site: liver; lesion: hepatocellular adenoma + hepatocellular carcinoma; dosed 13 weeks; study length 104 weeks
measure: TD50 (mg/kg/day)
Report as a plain number; the unit mg/kg/day is understood.

Consider the compound shown here: C=CC=C What is its recorded TD50?
15.1

* * *

system: rodent lifetime carcinogenesis bioassay, tumor incidence TD50; experiment: carcinogenic potency in animals, long-term in vivo studies, CPDB compilation (AID 1745844); conditions: mouse; strain Charles River CD1; males; inhaled; site: lung; lesion: alveolar/bronchiolar adenoma; dosed 78 weeks; study length 78 weeks
measure: TD50
Provide the measurement as a number trailed by its unit.

Request - read-out TD50 | tested on rodent lifetime carcinogenesis bioassay, tumor incidence TD50 | compound C=Cc1ccccc1
465 mg/kg/day

* * *

test system: rodent lifetime carcinogenesis bioassay, tumor incidence TD50; test: carcinogenic potency in animals, long-term in vivo studies, CPDB compilation (AID 1745844); details: mouse; strain B6AKF1; males; oral dosing; site: any site (literature study); lesion: several types; types named in the paper; dosed 76 weeks; study length 76 weeks
Active and inactive are the calls of the source. The rule behind the calls is not given here.
measure: carcinogen call

Before answering, review these 5 worked examples.
[S-]c1nc2ccccc2s1.[S-]c1nc2ccccc2s1.[Zn+2] : negative (inactive)
OC[C@@H](O)[C@H]1O[C@@H]2O[C@H](C(Cl)(Cl)Cl)O[C@@H]2[C@H]1O : negative (inactive)
NC(=O)Cc1cccc2ccccc12 : negative (inactive)
O=S(=O)(c1ccc(Cl)cc1)c1cc(Cl)c(Cl)cc1Cl : negative (inactive)
O=C1NCCN1 : negative (inactive)

Returns the measured carcinogen call for the input compound. Input: O=S(=O)(Oc1ccc(Cl)cc1)c1ccc(Cl)cc1
negative (inactive)

* * *

system: rodent lifetime carcinogenesis bioassay, tumor incidence TD50; assay: carcinogenic potency in animals, long-term in vivo studies, CPDB compilation (AID 1745844); settings: mouse; strain B6C3F1; females; oral dosing; site: liver; lesion: hepatoma; dosed 77 weeks; study length 77 weeks
measure: TD50 (mg/kg/day)
Please state the figure in mg/kg/day; there is no need to write the unit.

What reported TD50 corresponds to CC(COc1ccc(C(C)(C)C)cc1)OS(=O)OCCCl (stereo unspecified) on rodent lifetime carcinogenesis bioassay, tumor incidence TD50?
973

* * *

test system: rodent lifetime carcinogenesis bioassay, tumor incidence TD50; assay: carcinogenic potency in animals, long-term in vivo studies, CPDB compilation (AID 1745844); conditions: mouse; strain CF-1; females; in feed; site: uterus; lesion: leiomyoma; dosed 78 weeks; study length 78 weeks
measure: TD50 (mg/kg/day)
# unit: mg/kg/day | format: bare number

Hi! What's the reported TD50 for CC(C)(C)NC[C@H](O)COc1cccc2c1CCCC2=O on rodent lifetime carcinogenesis bioassay, tumor incidence TD50?
1220
